Biological target: T1, FtsZ (purified, C. crescentus) (Caulobacter crescentus, UniProt B8H080 1-508)
T1 construct: FtsZ, Caulobacter crescentus; In the assays it was polymerised with GTP and MgCl2; source: E. coli Rosetta (DE3) pLysS, purified as previously described (Sundararajan et al., 2015)
T1 sequence (looked up): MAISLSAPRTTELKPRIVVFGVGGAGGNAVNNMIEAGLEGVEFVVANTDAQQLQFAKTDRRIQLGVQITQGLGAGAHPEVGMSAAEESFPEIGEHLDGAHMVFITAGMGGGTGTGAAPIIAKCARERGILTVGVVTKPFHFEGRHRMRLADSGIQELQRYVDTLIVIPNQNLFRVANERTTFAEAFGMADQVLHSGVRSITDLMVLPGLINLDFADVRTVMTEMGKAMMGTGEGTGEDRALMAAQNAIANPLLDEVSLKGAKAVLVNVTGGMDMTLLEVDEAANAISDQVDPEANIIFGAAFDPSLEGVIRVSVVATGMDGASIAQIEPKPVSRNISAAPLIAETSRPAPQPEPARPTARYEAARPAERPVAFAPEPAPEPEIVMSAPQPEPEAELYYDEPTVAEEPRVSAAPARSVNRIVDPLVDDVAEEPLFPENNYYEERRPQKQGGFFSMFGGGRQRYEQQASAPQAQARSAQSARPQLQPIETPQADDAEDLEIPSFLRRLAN
Test: co-sedimentation; high speed co-pelleting: 4 µM FzlA variant ± 2 µM FtsZ, 50 mM MES pH 6.5, 50 mM KCl, 10 mM MgCl2, 2 mM GTP, 0.05% Triton X-100, 15 min room temperature, 280 000 x g 15 min 25°C; Coomassie gel quantified
Details: both partners purified
This section presents binders with their documented fold change of FzlA in pellet (with FtsZ vs. alone), high speed values.
A number alone suffices; assume fold.

FzlA^UE2 (D227K) (natural protein, Caulobacter crescentus, FzlA, Caulobacter crescentus, with D227K; also called unknown essential activity; source: E. coli Rosetta (DE3) pLysS, purified (HisTrap, His6-SUMO cleaved)) MSVERTLHHFPLDPASRQVRLALGEKRLPFVEMQVRYWEMPPEFTSLNPSGMPPVLVETKHQRNLVICETRAILEHIEETETEPPLLGRDPAERAEARRLLQWFDRKFDNEVNGFLLHEKMEKRLLRMGAPDLAALRQGREALRMHLGYIESLLQTRDWLAGRRMSLADFAAAAHLSVIDYFGDVPWKDFQAAKTWYMKLKSRPCFRPILADRWPGLAPAAHYDDLKF	59
FzlA^NH2 (R140D E141K) (natural protein, Caulobacter crescentus, FzlA, Caulobacter crescentus, with R140D E141K; also called no helices; source: E. coli Rosetta (DE3) pLysS, purified (HisTrap, His6-SUMO cleaved)) MSVERTLHHFPLDPASRQVRLALGEKRLPFVEMQVRYWEMPPEFTSLNPSGMPPVLVETKHQRNLVICETRAILEHIEETETEPPLLGRDPAERAEARRLLQWFDRKFDNEVNGFLLHEKMEKRLLRMGAPDLAALRQGDKALRMHLGYIESLLQTRDWLAGRRMSLADFAAAAHLSVIDYFGDVPWKDFQAAKTWYMKLKSRPCFRPILADRWPGLAPAAHYDDLDF	7.21
FzlA^NH3 (R144D) (natural protein, Caulobacter crescentus, FzlA, Caulobacter crescentus, with R144D; also called no helices; source: E. coli Rosetta (DE3) pLysS, purified (HisTrap, His6-SUMO cleaved)) MSVERTLHHFPLDPASRQVRLALGEKRLPFVEMQVRYWEMPPEFTSLNPSGMPPVLVETKHQRNLVICETRAILEHIEETETEPPLLGRDPAERAEARRLLQWFDRKFDNEVNGFLLHEKMEKRLLRMGAPDLAALRQGREALDMHLGYIESLLQTRDWLAGRRMSLADFAAAAHLSVIDYFGDVPWKDFQAAKTWYMKLKSRPCFRPILADRWPGLAPAAHYDDLDF	3.51
FzlA^NH1 (P131A L136A R137E) (natural protein, Caulobacter crescentus, FzlA, Caulobacter crescentus, with P131A L136A R137E; also called no helices; source: E. coli Rosetta (DE3) pLysS, purified (HisTrap, His6-SUMO cleaved)) MSVERTLHHFPLDPASRQVRLALGEKRLPFVEMQVRYWEMPPEFTSLNPSGMPPVLVETKHQRNLVICETRAILEHIEETETEPPLLGRDPAERAEARRLLQWFDRKFDNEVNGFLLHEKMEKRLLRMGAADLAAAEQGREALRMHLGYIESLLQTRDWLAGRRMSLADFAAAAHLSVIDYFGDVPWKDFQAAKTWYMKLKSRPCFRPILADRWPGLAPAAHYDDLDF	2.34
FzlA^UE1 (Y223A D227K F228A) (natural protein, Caulobacter crescentus, FzlA, Caulobacter crescentus, with Y223A D227K F228A; also called unknown essential activity; source: E. coli Rosetta (DE3) pLysS, purified (HisTrap, His6-SUMO cleaved)) MSVERTLHHFPLDPASRQVRLALGEKRLPFVEMQVRYWEMPPEFTSLNPSGMPPVLVETKHQRNLVICETRAILEHIEETETEPPLLGRDPAERAEARRLLQWFDRKFDNEVNGFLLHEKMEKRLLRMGAPDLAALRQGREALRMHLGYIESLLQTRDWLAGRRMSLADFAAAAHLSVIDYFGDVPWKDFQAAKTWYMKLKSRPCFRPILADRWPGLAPAAHADDLKA	5.85

Value of fold change of FzlA in pellet (with FtsZ vs. alone), high speed reported for the binder FzlA^UN1 (P131A) (natural protein, Caulobacter crescentus, FzlA, Caulobacter crescentus, with P131A; also called unknown nonessential activity; source: E. coli Rosetta (DE3) pLysS, purified (HisTrap, His6-SUMO cleaved)) MSVERTLHHFPLDPASRQVRLALGEKRLPFVEMQVRYWEMPPEFTSLNPSGMPPVLVETKHQRNLVICETRAILEHIEETETEPPLLGRDPAERAEARRLLQWFDRKFDNEVNGFLLHEKMEKRLLRMGAADLAALRQGREALRMHLGYIESLLQTRDWLAGRRMSLADFAAAAHLSVIDYFGDVPWKDFQAAKTWYMKLKSRPCFRPILADRWPGLAPAAHYDDLDF is 9.85
